test target: T1, RaaS wild type (Mycobacterium tuberculosis, UniProt O86312 1-212)
T1 sequence: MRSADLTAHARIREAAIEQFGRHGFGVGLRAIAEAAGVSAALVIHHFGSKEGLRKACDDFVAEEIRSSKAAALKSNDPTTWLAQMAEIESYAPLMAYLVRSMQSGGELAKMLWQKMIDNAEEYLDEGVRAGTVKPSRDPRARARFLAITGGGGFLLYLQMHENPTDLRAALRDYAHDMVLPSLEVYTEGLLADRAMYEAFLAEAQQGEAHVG
assay remarks: fluorescence anisotropy; 4 nM DNA
condition parameters: protein: recombinant; chain copies: 2
measured parameter: Kd (nM)

binder: Pr14F/Pr14R (ATTO 647N) (dsDNA) DNA 1: GGGATGAACGTACGTTTAATATCCTGAACATGCGTTCAG DNA 2: GGGCTGAACGCATGTTCAGGATATTAAACGTACGTTCAT
units text: nM
reported: 31
